# System: A498 renal
# assay.method.text: NCI-60 one-dose screen, 48 h
# study.conditions: 10 µM unless noted
# Procedure: Growth inhibition of the A498 human tumor cell line is measured as a screen for anti-cancer activity. Cells are grown in 96 well plates and exposed to the test compound for 48 hours. Compounds are tested at a single concentration, which is 10^-5 M for most compounds. The reported endpoint is percent growth (GI% or GIPRCNT), where numbers from 0 - 100% represent growth inhibition, and numbers from -100% - 0 represent cell death. For example, a value of 40 represents 60% growth inhibition. […]
The panel holds about 83,000 compounds, 20% with a hit somewhere; the sample as a whole holds those more often. The source made the active and inactive calls. How the source made its calls: active means growth percent below 10; inactive means the rest.
The reply should be one of these categories: active, inactive

COc1ccc2[nH]c(=O)cc(-n3ncc(C(=O)/C=C/c4cc(OC)c(OC)c(OC)c4)c3C)c2c1: active
N#Cc1ccc(C(=O)NNC(=O)CSc2nc3sc4c(c3c(=O)n2-c2ccc(Cl)cc2)CCCC4)cc1: inactive
O=C1N/C(=N\c2nccs2)S/C1=C\c1ccc([N+](=O)[O-])cc1: inactive
COc1ccc(-c2cc(C(=O)N=Nc3c(O)[nH]c4ccc(Cl)cc34)c3ccccc3n2)cc1: inactive
Cn1cc(-c2cc(N)n3nc(-c4c[nH]c5ccc(Cl)cc45)cc3n2)c2cccnc21: active

Query: Recorded call for Oc1ccc(Cl)c(Nc2ncnc3c2cnn3CC(Cl)c2ccc(Br)cc2)c1 (stereo not drawn) ?
Result: inactive

Query: Recorded call for COc1ccc(NC(=O)Cn2c(/C=C/c3cccc(OC)c3)nc3ccccc3c2=O)cc1 ?
Result: active

* * *

Please go through the items and note down their growth.
# Test system: TK-10 renal
# assay.method.text: NCI-60 one-dose screen, 48 h (100 = growth as untreated, 0 = no growth, -100 = all killed)
# study.conditions: 10 µM unless noted
# Procedure: Growth inhibition of the TK-10 human tumor cell line is measured as a screen for anti-cancer activity. Cells are grown in 96 well plates and exposed to the test compound for 48 hours. Compounds are tested at a single concentration, which is 10^-5 M for most compounds. The reported endpoint is percent growth (GI% or GIPRCNT), where numbers from 0 - 100% represent growth inhibition, and numbers from -100% - 0 represent cell death. For example, a value of 40 represents 60% growth inhibition. […]
The panel holds about 83,000 compounds, 20% with a hit somewhere; the sample as a whole holds those more often.
One number for each entry, in %.

The cases that follow already have their growth on record.
O=C1/C(=C/c2cccc3c2OCO3)Cc2c(F)cc(Br)cc21: 115
O=C(CSc1nc2ccccc2c(=O)[nH]1)Nc1ccccc1C(=O)O: 116

Look up growth for the entries below, preserving their order.
1. CN(C)c1ccc(/C=C/c2n(Cc3ccc4ccccc4c3)c3ccccc3[n+]2Cc2ccc3ccccc3c2)cc1
2. O=C(N/N=C/c1ccc(B(O)O)s1)c1[nH]c2ccc(Br)cc2c1-c1ccccc1
3. COC(=O)c1cc(C(C)=O)n2c3ccccc3c3ccccc3c12

Result:
[-81.1, -93.2, 74.3]

* * *

# Test system: TK-10 renal
# assay.method.text: NCI-60 one-dose screen, 48 h (100 = growth as untreated, 0 = no growth, -100 = all killed)
# study.conditions: 10 µM unless noted
This is part of a sample that, as a whole, favours compounds with a hit. Of some 83,000 tested, about 20% had one in any assay.
Binary label based on growth with cut-off 90%: below gives Y, not below gives N.

Example entries begin here.
Clc1ccc(-c2nc3c4c(-c5ccccc5)c(-c5ccccc5)n(Cc5ccccc5)c4ncn3n2)cc1: Y
COc1cc(CNC(=O)C[C@H](C)CCC=C(C)C)ccc1OCc1cn(-c2ccccc2Cl)nn1: N
COc1ccc(-c2cc(C(=O)N=Nc3c(O)[nH]c4ccc(Cl)cc34)c3ccccc3n2)cc1OC: N
Cn1cc(-c2cc3nc(-c4cn(C)c5ncccc45)cc(N)n3n2)c2cc(F)ccc21: Y
COc1cc(C2CC(c3ccc(C(F)(F)F)cc3)=Nc3c(N)nc(N)nc3N2)ccc1Oc1nc(Nc2ccc(F)cc2)nc(N(C)C)n1 (centres undefined): Y

Query: Item C/C(=N\Nc1ccc(C(=O)O)cc1)c1cnn(-c2cc(=O)[nH]c3ccc(C)cc23)c1C : growth beneath 90%, strictly?
Result: N

Query: Item COC(=O)c1c(C(=O)OC)c2c3ccccc3c3ccccc3n2c1C(=O)C(C)(C)C : growth beneath 90%, strictly?
Result: N

Query: Item O=c1ccc(Cn2c(C(F)(F)F)cc3c(Cl)ncnc32)c[nH]1 : growth beneath 90%, strictly?
Result: N

Query: Item O=C(NN1C(=O)/C(=C/C=C/c2ccc([N+](=O)[O-])o2)SC1=S)c1ccncc1 : growth beneath 90%, strictly?
Result: Y

Query: Item S=C(NCCc1ccccc1)Nc1ccc(OCc2nc3ccc(Cl)cc3[nH]2)cc1 : growth beneath 90%, strictly?
Result: Y

Query: Item Cc1cccc(-c2ccccc2Oc2ccc3nnc(Cl)n3n2)c1 : growth beneath 90%, strictly?
Result: N
